# target or system: DNA repair nuclease/redox regulator APEX1 (Homo sapiens)
# protocol summary: qHTS Validation Assay for Inhibitors of the Human Apurinic/apyrimidinic Endonuclease 1 (APE1) (AID 1705;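 further: TAMRA fluorescence gain over two minutes as APE1 cuts a quenched THF abasic duplex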)
# particulars: purified APE1 endonuclease activity, fluorescence, titration; series mostly up to 57.1 µM
Results filed as inconclusive are left out. Activity calls are given as the source filed them. The call rests on the fitted dose curve; in most records, active means well fitted inhibition curve with a large enough effect; inconclusive means small, poorly fitted or top-dose-only effect; inactive means flat fitted curve, though single readings scatter.
assay readout: outcome

Some solved entries appear below for comparison.
molecule=Cn1c(=O)c2[nH]c(C3CCCC3)nc2n(C)c1=O recorded_measurement=inactive
molecule="CN(C)CCC(c1ccc(Br)cc1)c1ccccn1 (configuration not stated)" recorded_measurement=inactive
molecule="C=CC1(C)CC(=O)C2(O)C(C)(O1)C(OC(C)=O)C(O)C1C(C)(C)CCC(O)C12C (configuration not stated)" recorded_measurement=inactive
molecule=Cn1c(=O)c2[nH]c(-c3ccc(S(=O)(=O)O)cc3)nc2n(C)c1=O recorded_measurement=inactive

// input: 2 molecules below; output: outcome for each
1. CCCC(=O)NCCc1c2n(c3ccc(OC)cc13)CCCc1ccccc1-2
2. S=C(S)N1CCCC1

1: inactive; 2: inactive

----------
# protocol summary: HTS Assay for Allosteric Antagonists of the Human D2 Dopamine Receptor: Hit Validation in HTRF (AID 624455);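 further: stable D1 dopamine receptor cell line scored for blocking the D1 response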
# particulars: Cells stably expressing D1 dopamine receptor, inhibition mode; series mostly up to 46.1 µM
Inconclusive results are not listed. Active and inactive are the calls of the source. The call rests on the fitted dose curve; in most records, active means well fitted inhibition curve with a large enough effect; inconclusive means small, poorly fitted or top-dose-only effect; inactive means no such curve, though single readings can be large or run the other way.
Use one of these outcomes when replying: active, inactive

As a guide, the following entries are already answered.
compound="CN1Cc2sccc2C(c2ccc(O)c(O)c2)C1 (stereo unspecified)" qualitative_label=active
compound="Nc1ncnc2c1nc(Br)n2C1OC2COP(=O)(O)O[C@@H]2C1O (stereo partly specified)" qualitative_label=active
compound=Cn1c(=O)c2[nH]c(C3CCCC3)nc2n(C)c1=O qualitative_label=inactive

Tell me the recorded outcome of this test for `O=C(O)/C=C/c1cnc[nH]1` . inactive

Tell me the recorded outcome of this test for `CC(=O)N[C@@H](Cc1c[nH]c2ccccc12)C(=O)OCc1cc(C(F)(F)F)cc(C(F)(F)F)c1` . inactive

Tell me the recorded outcome of this test for `c1ccc(C(NCCNC(c2ccccc2)c2ccccc2)c2ccccc2)cc1` . inactive

----------
# target or system: ATP-dependent 6-phosphofructokinase (Trypanosoma brucei brucei) (UniProt O15648)
# Sequence (O15648 whole entry, looked up): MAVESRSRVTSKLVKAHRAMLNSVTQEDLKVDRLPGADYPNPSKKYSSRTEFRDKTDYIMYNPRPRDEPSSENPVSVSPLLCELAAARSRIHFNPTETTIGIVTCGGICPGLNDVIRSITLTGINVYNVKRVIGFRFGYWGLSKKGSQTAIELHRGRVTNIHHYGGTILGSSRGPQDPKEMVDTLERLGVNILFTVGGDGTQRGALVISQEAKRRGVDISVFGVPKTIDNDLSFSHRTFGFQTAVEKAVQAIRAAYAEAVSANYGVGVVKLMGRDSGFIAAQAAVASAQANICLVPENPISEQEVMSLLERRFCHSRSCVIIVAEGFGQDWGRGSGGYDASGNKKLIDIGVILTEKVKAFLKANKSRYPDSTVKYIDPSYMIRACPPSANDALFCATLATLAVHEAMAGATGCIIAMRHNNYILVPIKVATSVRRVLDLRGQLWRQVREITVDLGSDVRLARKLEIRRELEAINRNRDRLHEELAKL
# protocol summary: qHTS Validation Assay to Find Inhibitors of T. brucei phosphofructokinase (AID 485368)
# particulars: T. brucei PFK enzyme assay, qHTS 7-point titration; series mostly up to 57.5 µM
Records with an inconclusive call do not appear. Calls of active or inactive are those of the source. The call rests on the fitted dose curve; in most records, active means well fitted inhibition curve with a large enough effect; inconclusive means small, poorly fitted or top-dose-only effect, or effect the other way; inactive means flat fitted curve, though single readings scatter.
assay readout: outcome

compound="COc1cc(C(O)CO)ccc1O (stereo unspecified)" target_or_system="ATP-dependent 6-phosphofructokinase (Trypanosoma brucei brucei) (UniProt O15648)" assay_readout=outcome recorded_measurement=inactive
compound="C=C(C)C1CC=C(C(=O)O)CC1 (stereo unspecified)" target_or_system="ATP-dependent 6-phosphofructokinase (Trypanosoma brucei brucei) (UniProt O15648)" assay_readout=outcome recorded_measurement=inactive
compound=N[C@H](C(=O)O)[C@H]1C[C@@H]1C(=O)O target_or_system="ATP-dependent 6-phosphofructokinase (Trypanosoma brucei brucei) (UniProt O15648)" assay_readout=outcome recorded_measurement=inactive
compound="COC(=O)C1=C(C)NC(C)=C([N+](=O)[O-])C1c1ccccc1C(F)(F)F (stereo unspecified)" target_or_system="ATP-dependent 6-phosphofructokinase (Trypanosoma brucei brucei) (UniProt O15648)" assay_readout=outcome recorded_measurement=inactive
compound="Cc1nc2n(c(=O)c1CCN1CCC(c3noc4cc(F)ccc34)CC1)CCCC2O (stereo unspecified)" target_or_system="ATP-dependent 6-phosphofructokinase (Trypanosoma brucei brucei) (UniProt O15648)" assay_readout=outcome recorded_measurement=inactive

Field: next compound
Endpoint output: outcome of `COc1ccccc1N1CCN(CCCCNC(=O)c2ccc3ccccc3c2)CC1` . Value? inactive
